# Measured on: UniProtKB P55212
# Sequence (P55212 24-179 limits assumed): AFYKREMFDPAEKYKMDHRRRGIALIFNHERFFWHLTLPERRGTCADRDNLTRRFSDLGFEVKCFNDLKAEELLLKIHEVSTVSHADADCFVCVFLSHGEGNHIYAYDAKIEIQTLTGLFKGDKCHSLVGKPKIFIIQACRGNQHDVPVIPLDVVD
# Sequence (P55212 194-293 limits assumed): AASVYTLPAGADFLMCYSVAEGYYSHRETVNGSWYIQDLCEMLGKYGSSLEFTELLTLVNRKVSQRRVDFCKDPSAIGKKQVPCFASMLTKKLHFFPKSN
# Assay details: inhibition of CASP6 peptide cleavage – biochemical, VEID-R110 fluorescence, cherry-pick, dose response (AID 720632)
Active and inactive are the calls of the source. No rule for the calls is given here.
Consider the following compounds; for each one, report its AC50.

Problem: Give UniProtKB P55212 AC50 for the following compound: `O=C(Cc1ccccc1)N1CCCCN2[C@H](CO)[C@@H](c3ccc(C#Cc4ccccc4)cc3)[C@H]2C1`
Result: 47.3 µM (active)

Problem: Give UniProtKB P55212 AC50 for the following compound: O=C(NN1C(=O)C2CC=C(Cl)CC2C1=O)c1ccncc1 (centres undefined)
Result: 16.5 µM (active)

Problem: # return AC50 for `Cc1oc2c(cc(NS(=O)(=O)c3ccc(C(C)C)cc3)c3ccccc32)c1C(=O)O` , test system: UniProtKB P55212
Result: 4 µM (active)

Problem: Param request: AC50 | system UniProtKB P55212 | item `Cc1cc(/C=N/NC(=O)C(O)(c2ccccc2)c2ccccc2)c(C)n1-c1cccc(C(=O)O)c1`
Result: 1.78 µM (active)

Reference for the values: ChEMBL document CHEMBL1201862
